# Tested on: LEGO organoid PTN (PTEN-/-; TP53-/-; NF1-/-)
# Test summary: bioluminescence (viable cell) signal fold change after vs before treatment, normalised to DMSO (ratio); higher = more tumour cell growth / less inhibition
# Conditions: 10 µM; treatment time 6 days
Parameter bioluminescence: see the listing below.
// return just the number, without any unit appended

Sample answers from the record:
{"Compound": "CCCN(CCC)S(=O)(=O)c1ccc(C(=O)O)cc1", "Test target": "LEGO organoid PTN (PTEN-/-; TP53-/-; NF1-/-)", "bioluminescence": 1.62}
{"Compound": "Cc1cn([C@H]2C=C[C@@H](CO)O2)c(=O)[nH]c1=O", "Test target": "LEGO organoid PTN (PTEN-/-; TP53-/-; NF1-/-)", "bioluminescence": 0.812}
{"Compound": "CCN(CC)CC(=O)Nc1c(C)cccc1C", "Test target": "LEGO organoid PTN (PTEN-/-; TP53-/-; NF1-/-)", "bioluminescence": 1.22}
{"Compound": "Cc1cccc(C)c1OCC(=O)N[C@@H](Cc1ccccc1)[C@@H](O)C[C@H](Cc1ccccc1)NC(=O)[C@H](C(C)C)N1CCCNC1=O", "Test target": "LEGO organoid PTN (PTEN-/-; TP53-/-; NF1-/-)", "bioluminescence": 0.66}
{"Compound": "Cc1ccccc1C(OCCN(C)C)c1ccccc1.Cl (stereo not drawn) [Orphenadrine hydrochloride]", "Test target": "LEGO organoid PTN (PTEN-/-; TP53-/-; NF1-/-)", "bioluminescence": 1.59}

Lookup result for `C[C@@H]1C[C@H]2[C@@H]3CCC4=CC(=O)C=C[C@]4(C)[C@@]3(F)[C@@H](O)C[C@]2(C)[C@@]1(O)C(=O)CO` ; measured bioluminescence: 1.71

Lookup result for CC(C)Cc1ccc(C(C)C(=O)O)cc1 (stereo not drawn) ; measured bioluminescence: 1.57

Lookup result for CN1[C@@H]2CC[C@H]1C[C@@H](OC(c1ccccc1)c1ccccc1)C2.CS(=O)(=O)O [Benztropine mesylate] ; measured bioluminescence: 0.419

Lookup result for CCOc1nc2cccc(C(=O)OC(C)OC(=O)OC3CCCCC3)c2n1Cc1ccc(-c2ccccc2-c2nn[nH]n2)cc1 (stereo not drawn) ; measured bioluminescence: 1.04

Lookup result for `CCOc1nc2cccc(C(=O)O)c2n1Cc1ccc(-c2ccccc2-c2nn[nH]n2)cc1` ; measured bioluminescence: 2.99

Lookup result for CCN1CCN(C(=O)N[C@@H](C(=O)N[C@@H]2C(=O)N3[C@@H]2SC(C)(C)[C@@H]3C(=O)[O-])c2ccccc2)C(=O)C1=O.[Na+] [Piperacillin sodium salt] ; measured bioluminescence: 0.935

Lookup result for `CN[C@H](CC(C)C)C(=O)N[C@H]1C(=O)N[C@@H](CC(N)=O)C(=O)N[C@H]2C(=O)N[C@H]3C(=O)N[C@H](C(=O)N[C@H](C(=O)O)c4cc(O)cc(O)c4-c4cc3ccc4O)[C@H](O)c3ccc(c(Cl)c3)Oc3cc2cc(c3O[C@@H]2O[C@H](CO)[C@@H](O)[C@H](O)[C@H]2O[C@H]2C[C@](C)(N)[C@H](O)[C@H](C)O2)Oc2ccc(cc2Cl)[C@H]1O` ; measured bioluminescence: 0.868

Lookup result for CN1CCN(CCCN2c3ccccc3Sc3ccc(C(F)(F)F)cc32)CC1.Cl.Cl [Trifluoperazine dihydrochloride] ; measured bioluminescence: 1.23

// provenance: the supplement of paper PMC10811239
